Data credit: patent US7994172B2

target: human Akt1 kinase (kinase domain residues R144-A480, activated with PDK1) (Homo sapiens); assay: Akt1 kinase assay, Luciferase-Coupled Chemiluminescent Kinase assay (LCCA); conditions: 1 μM ATP, 1.3 nM Akt1; read-out: Akt-1 inhibition IC50
Sequence (P31749 144-480): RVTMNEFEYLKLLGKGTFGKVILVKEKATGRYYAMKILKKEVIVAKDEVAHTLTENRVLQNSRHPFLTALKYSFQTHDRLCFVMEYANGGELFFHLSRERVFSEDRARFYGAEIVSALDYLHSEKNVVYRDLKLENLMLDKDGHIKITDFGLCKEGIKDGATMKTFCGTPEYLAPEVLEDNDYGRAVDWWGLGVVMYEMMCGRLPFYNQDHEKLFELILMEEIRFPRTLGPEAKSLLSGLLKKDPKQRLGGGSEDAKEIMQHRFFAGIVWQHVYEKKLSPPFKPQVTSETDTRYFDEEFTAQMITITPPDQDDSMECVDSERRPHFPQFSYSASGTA
parameter.measured: IC50

Entry `Clc1ccc(CC2CCN(c3ncnc4[nH]nc(Br)c34)CC2)cc1Cl` ; assay system human Akt1 kinase (kinase domain residues R144-A480, activated with PDK1) (Homo sapiens); IC50 recorded at > 2000 nM

Entry `Cc1cccc(CN2CCN(c3ncnc4[nH]nc(Br)c34)CC2)c1` ; assay system human Akt1 kinase (kinase domain residues R144-A480, activated with PDK1) (Homo sapiens); IC50 recorded at > 2000 nM

Entry `Brc1n[nH]c2ncnc(N3CCN(Cc4cccnc4)CC3)c12` ; assay system human Akt1 kinase (kinase domain residues R144-A480, activated with PDK1) (Homo sapiens); IC50 recorded at > 2000 nM

Entry `O=C(c1ccc(F)cc1)C1CCN(c2ncnc3[nH]nc(Br)c23)CC1` ; assay system human Akt1 kinase (kinase domain residues R144-A480, activated with PDK1) (Homo sapiens); IC50 recorded at < 50 nM

Entry `FC(F)(F)c1ccc(CN2CCN(c3ncnc4[nH]nc(Br)c34)CC2)cc1` ; assay system human Akt1 kinase (kinase domain residues R144-A480, activated with PDK1) (Homo sapiens); IC50 recorded at 500 to 2000 nM

Entry CN(C)CCCC(O)(c1ccc(Cl)cc1)C1CCN(c2ncnc3[nH]nc(Br)c23)CC1 (stereo not drawn) ; assay system human Akt1 kinase (kinase domain residues R144-A480, activated with PDK1) (Homo sapiens); IC50 recorded at < 50 nM

Entry `Clc1ccc(OC2CCN(c3ncnc4[nH]nc(Br)c34)CC2)cc1` ; assay system human Akt1 kinase (kinase domain residues R144-A480, activated with PDK1) (Homo sapiens); IC50 recorded at 500 to 2000 nM

Entry OC(c1ccc2cc[nH]c2c1)N1CCN(c2ncnc3[nH]nc(Br)c23)CC1 (stereo not drawn) ; assay system human Akt1 kinase (kinase domain residues R144-A480, activated with PDK1) (Homo sapiens); IC50 recorded at 500 to 2000 nM

Entry `Fc1cc([C@H](OCCN2CCCC2)C2CCN(c3ncnc4[nH]nc(Br)c34)CC2)ccc1Cl` ; assay system human Akt1 kinase (kinase domain residues R144-A480, activated with PDK1) (Homo sapiens); IC50 recorded at < 50 nM

Entry CCN(CC)CCNC(c1ccc(Cl)cc1)C1CCN(c2ncnc3[nH]nc(Br)c23)CC1 (stereo not drawn) ; assay system human Akt1 kinase (kinase domain residues R144-A480, activated with PDK1) (Homo sapiens); IC50 recorded at < 50 nM

Entry `Fc1ccc(CN2CCN(c3ncnc4[nH]nc(Br)c34)CC2)cc1` ; assay system human Akt1 kinase (kinase domain residues R144-A480, activated with PDK1) (Homo sapiens); IC50 recorded at 500 to 2000 nM

Entry `COCCCNC(=O)c1ccc(CN2CCN(c3ncnc4[nH]nc(Br)c34)CC2)cc1` ; assay system human Akt1 kinase (kinase domain residues R144-A480, activated with PDK1) (Homo sapiens); IC50 recorded at > 2000 nM

Entry `Fc1cccc(Cl)c1CN1CCN(c2ncnc3[nH]nc(Br)c23)CC1` ; assay system human Akt1 kinase (kinase domain residues R144-A480, activated with PDK1) (Homo sapiens); IC50 recorded at > 2000 nM

Entry `CN(C)CCNC(=O)N(c1ccc(Cl)cc1)C1CCN(c2ncnc3[nH]nc(Br)c23)CC1` ; assay system human Akt1 kinase (kinase domain residues R144-A480, activated with PDK1) (Homo sapiens); IC50 recorded at < 50 nM

Entry `CN(C)CCOC(=O)N(c1ccc(Cl)cc1)C1CCN(c2ncnc3[nH]nc(Br)c23)CC1` ; assay system human Akt1 kinase (kinase domain residues R144-A480, activated with PDK1) (Homo sapiens); IC50 recorded at < 50 nM

Entry `CCN(CC)CCCNC(=O)C1(Cc2ccc(Cl)cc2)CCN(c2ncnc3[nH]nc(Br)c23)CC1` ; assay system human Akt1 kinase (kinase domain residues R144-A480, activated with PDK1) (Homo sapiens); IC50 recorded at 50 to 500 nM

Entry CCN(CC)CCN(C)C(c1ccc(Cl)cc1)C1CCN(c2ncnc3[nH]nc(Br)c23)CC1 (stereo not drawn) ; assay system human Akt1 kinase (kinase domain residues R144-A480, activated with PDK1) (Homo sapiens); IC50 recorded at < 50 nM

Entry `Brc1n[nH]c2ncnc(N3CCN(Cc4ncc[nH]4)CC3)c12` ; assay system human Akt1 kinase (kinase domain residues R144-A480, activated with PDK1) (Homo sapiens); IC50 recorded at > 2000 nM
